# Test system: human CD4+CD45RO+ T cells
# Run description: Modulation of T cell differentiation by RAR agonists and antagonists
# Type: cell-based
# Protocol conditions: 8 days culture, vs DMSO
# Description: Human CD4^+CD45RO^+ T cells were stimulated with an anti-CD3/CD28 antibody and IL-2, and cultured in the presence of DMSO as a control, or various RAR agonists (FIG. 30) or RAR antagonists (FIG. 31) for 8 days.
Quantity measured: proportion of memory T cells (CD62L+CD127+ cells)

# Molecule, Result
data = [
    ("CC1=C(/C=C/C(C)=C/C=C/C(C)=C/C(=O)O)C(C)(C)CCC1 [retinoic acid, all-trans retinoic acid]", "decreased"),
    ("CC1(C)CCC(C)(C)c2cc(C(=O)Nc3ccc(C(=O)O)cc3)ccc21", "decreased"),
]

Attribution: patent US10947503B2
